Listed below: Kd values for each entry.
Test target: p53 Y220C mutant protein (amino acid residues 94-293) (Homo sapiens, UniProt P04637, Y220C)
Construct: p53 Y220C mutant protein (amino acid residues 94-293)
Test description: Surface Plasmon Resonance (SPR) assay, Kd_kinetic
Assay type: binding
Assay setup: SPR, kinetic KD, p53 Y220C; read-out: SPR P53 Y220C KD kinetic

Examples from the recorded data:
Record smiles | Kd
CCNC(=O)c1ccc(NCC#Cc2nc3c(N[C@@H]4CCN(C)C[C@@H]4F)cccn3c2SC(F)(F)F)c(OC)c1 | < 10 nM
CNC(=O)c1ccc(C)c(NCC#Cc2nc3c(N[C@@H]4CCN(C)C[C@@H]4F)cccn3c2SC(F)(F)F)c1 | < 10 nM
CNC(=O)c1ccc(OC)c(NCC#Cc2nc3c(N[C@@H]4CCN(C)C[C@@H]4F)cc(F)cn3c2SC(F)(F)F)c1 | < 10 nM

Read off the recorded Kd for `CCOc1cc(C(=O)NC)ccc1NCC#Cc1nc2c(N[C@@H]3CCN(C)C[C@@H]3F)cccn2c1CC(F)(F)F`
< 10 nM

Look up and report measured Kd for this entry: `CNC(=O)c1ccc(NCC#Cc2nc3c(N[C@H]4CCC(=O)NC4)cccn3c2SC(F)(F)F)c(OC)c1`
10 to 100 nM
